Each item that follows carries a reported pIC50.
molecular target: Cholinesterase (Equus caballus)
pIC50: −log10 of the molar value.
PROPERTY_NAME: pIC50

{"columns": ["STRUCTURE_SMILES", "INEQUALITY_OPERATOR", "RECORDED_NUMBER"],
 "data": [
  ["O=C(CCNCCNc1c2c(nc3ccccc13)CCCCC2)Nc1ccc2c(c1)C(=O)c1cccc3ccnc-2c13", "=", 7.19],
  ["O=C(CCNCCNc1c2c(nc3ccccc13)CCCC2)Nc1ccc2c(c1)C(=O)c1cccc3ccnc-2c13", "=", 6.96],
  ["O=C(CNCCNc1c2c(nc3ccccc13)CCC2)Nc1ccc2c(c1)C(=O)c1cccc3ccnc-2c13", "=", 6.61],
  ["O=C(CCNCCCNc1c2c(nc3ccccc13)CCCC2)Nc1ccc2c(c1)C(=O)c1cccc3ccnc-2c13", "=", 6.70],
  ["Nc1ccc2c(c1)C(=O)c1cccc3ccnc-2c13", "<", 4.00],
  ["O=C(CCNCCCNc1c2c(nc3ccccc13)CCC2)Nc1ccc2c(c1)C(=O)c1cccc3ccnc-2c13", "=", 6.40],
  ["O=C(CCNCCCCNc1c2c(nc3ccccc13)CCCC2)Nc1ccc2c(c1)C(=O)c1cccc3ccnc-2c13", "=", 6.54],
  ["O=C(CCNCCCNc1c2c(nc3ccccc13)CCCCC2)Nc1ccc2c(c1)C(=O)c1cccc3ccnc-2c13", "=", 7.68],
  ["O=C(CCNCCNc1c2c(nc3ccccc13)CCC2)Nc1ccc2c(c1)C(=O)c1cccc3ccnc-2c13", "=", 5.75]
]}

Source: ChEMBL document CHEMBL1828584
